Assay: clinical
Settings: human, in vivo, po, 800 mg, tmax (median)
measurement.type: Tmax (h)
Entry rule: numbers only, all in h.

Could you tell me which Tmax is on file for O=c1nc(NO)ccn1C1OC(CO)C(O)C1O (stereo not shown) ?
1

----------
Assay: clinical
Details: human, in vivo, po, 200 mg, AUClast
measurement.type: AUC(0-t) (µg·h/mL)
Entry rule: numbers only, all in µg·h/mL.

Could you tell me which AUC(0-t) is on file for O=c1nc(NO)ccn1C1OC(CO)C(O)C1O (stereo not shown) [EIDD-1931] ?
1.81

----------
Test: clinical
Settings: human, in vivo, 300 mg, AUClast
measurement.type: AUC(0-t) (ng·h/mL)
Entry rule: numbers only, all in ng·h/mL.

Could you tell me which AUC(0-t) is on file for O=c1nc(NO)ccn1C1OC(CO)C(O)C1O (stereo not shown) ?
2980

----------
Test: clinical
Details: human, in vivo, po, 50 mg, AUClast
measurement.type: AUC(0-t) (ng·h/mL)
Entry rule: numbers only, all in ng·h/mL.

Could you tell me which AUC(0-t) is on file for O=c1nc(NO)ccn1C1OC(CO)C(O)C1O (stereo not shown) [EIDD-1931] ?
415

----------
Assay: in vitro
Settings: dog, plasma
measurement.type: half-life at 1 μM (h)
Entry rule: numbers only, all in h.

Could you tell me which half-life at 1 μM is on file for CC(C)C(=O)OC[C@H]1O[C@@H](n2ccc(NO)nc2=O)[C@H](O)[C@@H]1O ?
3.2

----------
Assay: clinical
Settings: human, in vivo, 100 mg, AUCt
measurement.type: AUC(0-t) (ng·h/mL)
Entry rule: numbers only, all in ng·h/mL.

Could you tell me which AUC(0-t) is on file for O=c1nc(NO)ccn1C1OC(CO)C(O)C1O (stereo not shown) ?
854

----------
Test: clinical
Settings: human, in vivo, po, geometric mean terminal elimination half-lives (t1/2)
measurement.type: half-life

Could you tell me which half-life is on file for O=c1nc(NO)ccn1C1OC(CO)C(O)C1O (stereo not shown) ?
0.91 to 1.29 h

----------
Assay: clinical
Conditions: human, in vivo, po, 100 mg, tmax (median)
measurement.type: Tmax (h)
Entry rule: numbers only, all in h.

Could you tell me which Tmax is on file for O=c1nc(NO)ccn1C1OC(CO)C(O)C1O (stereo not shown) ?
1

----------
Assay: clinical
Conditions: human, in vivo, 800 mg, AUCinf
measurement.type: AUC(0-inf) (ng·h/mL)
Entry rule: numbers only, all in ng·h/mL.

Could you tell me which AUC(0-inf) is on file for O=c1nc(NO)ccn1C1OC(CO)C(O)C1O (stereo not shown) ?
8200

----------
Experiment: in vitro
Details: both, human, microsomes, pH 7.4
measurement.type: half-life (min)
Entry rule: numbers only, all in min.

Could you tell me which half-life is on file for CC(C)[C@H](N)C(=O)OC[C@H]1O[C@@H](n2ccc(NO)nc2=O)[C@H](O)[C@@H]1O ?
14

----------
Assay: clinical
Settings: human, in vivo, 100 mg, Cmax
measurement.type: Cmax (ng/mL)
Entry rule: numbers only, all in ng/mL.

Could you tell me which Cmax is on file for O=c1nc(NO)ccn1C1OC(CO)C(O)C1O (stereo not shown) [EIDD-1931] ?
395

----------
Test: in vitro
Conditions: male, CD-1, mouse, microsomes, pH 7.4
measurement.type: half-life

Could you tell me which half-life is on file for CC(C)C(=O)OC[C@H]1O[C@@H](n2ccc(NO)nc2=O)[C@H](OC(=O)C(C)C)[C@@H]1OC(=O)C(C)C ?
< 1 min
